Answer each item with its documented log10 Ki.
- target_system: cloned human kappa receptor (Homo sapiens, UniProt P41145)
- Sequence (P41145 whole entry): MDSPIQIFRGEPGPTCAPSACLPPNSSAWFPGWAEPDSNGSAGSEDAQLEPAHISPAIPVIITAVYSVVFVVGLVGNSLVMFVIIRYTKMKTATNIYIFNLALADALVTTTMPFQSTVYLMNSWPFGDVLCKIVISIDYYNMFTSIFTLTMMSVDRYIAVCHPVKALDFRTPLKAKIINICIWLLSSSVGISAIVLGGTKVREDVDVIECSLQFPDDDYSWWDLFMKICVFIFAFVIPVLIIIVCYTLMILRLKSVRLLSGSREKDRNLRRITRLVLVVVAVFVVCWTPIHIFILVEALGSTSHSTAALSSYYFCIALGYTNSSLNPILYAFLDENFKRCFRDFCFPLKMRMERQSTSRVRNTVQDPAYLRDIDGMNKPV
- test_method_notes: biochemical
- Assay type: binding
- condition_summary: Ki, nM 3H-Diprenorphin
Where a name gives a salt, the structure may show the parent alone.
Each number you see is log10 of Ki, and the unit inside the log is nM.

Recorded results for 4 compounds are shown here.
> print(dat)
                                   compound                             target.system  recorded.endpoint  endpoint.result
1  COC(=O)N1CCN(C(=O)Cc2ccc(C(F)(F)F)cc2)C(CN2CCCC2)C1 (racemic) [(R,S-9b), hydrochloride]  cloned human kappa receptor (Homo sapiens, UniProt P41145)           log10 Ki            -0.31
2  CS(=O)(=O)O[C@H]1CCN(CC2CN(S(C)(=O)=O)CCN2C(=O)Cc2ccc(Cl)c(Cl)c2)C1 (stereo partly drawn) [Example 1jj, hydrochloride]  cloned human kappa receptor (Homo sapiens, UniProt P41145)           log10 Ki             1.06
3  CNS(=O)(=O)c1ccc(CC(=O)N2CCN(C(=O)OC)CC2CN2CCCC2)cc1 (racemic) [Example 1f, hydrochloride]  cloned human kappa receptor (Homo sapiens, UniProt P41145)           log10 Ki             1.73
4  COC(=O)N1CCN(C(=O)Cc2ccccc2OC)C(CN2CCCC2)C1 (racemic) [(R,S-9e), hydrochloride]  cloned human kappa receptor (Homo sapiens, UniProt P41145)           log10 Ki             0.86

Give one value of log10 Ki per listed compound.
1. COC(=O)N1CCN(C(=O)Cc2ccc(S(C)(=O)=O)cc2)C(CN2CCCC2)C1 (racemic) [(R,S-9a), hydrochloride]
2. COC(=O)N1CCN(C(=O)Cc2ccc(C(F)(F)F)cc2[N+](=O)[O-])C(CN2CCC[C@H]2CO)C1 (mixture of isomers) [Example 1m, hydrochloride]

[A]
1. 1.04
2. 1.69

Each recorded value in this set is attributed to patent US20050020576A1.
